- Measurement Target: T1, GFP-9S library array, motif 4 ND N98I;D124L (synthetic construct, N98I;D124L)
- T1 chain: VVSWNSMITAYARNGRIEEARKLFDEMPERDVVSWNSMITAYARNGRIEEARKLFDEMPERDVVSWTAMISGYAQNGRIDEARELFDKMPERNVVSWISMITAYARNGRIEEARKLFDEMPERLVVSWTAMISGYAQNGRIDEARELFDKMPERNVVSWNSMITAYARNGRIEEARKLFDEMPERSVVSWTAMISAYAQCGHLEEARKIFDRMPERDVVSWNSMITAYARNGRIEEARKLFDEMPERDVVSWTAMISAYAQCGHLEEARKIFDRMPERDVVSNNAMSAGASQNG
- Assay: high-throughput RNA pulldown from lysate on Ni-NTA beads; HRP: 50 mM Tris pH 8, 150 mM NaCl, 1 mM beta-mercaptoethanol, 50 ug/ml BSA, 3 ug/ml yeast RNA, 0.5% heparin; ITC and FP: Tris pH 8, 200 mM KCl, 5% glycerol; MST: 50 mM Tris pH 8, 200 mM NaCl, 1 mM DTT, BSA, heparin, 0.05% Tween 20
- Test Settings: tags: N-terminal His-eGFP; label: 5' IRDye 800CW
Observation Type: Kd (nM)
// units = nM; emit number, no label

1. AUUAUACGUGA (ssRNA) [IR-rpoA-U] = 202

Attention now turns to another entry.
## Input Entry AUUAAACGUGA (ssRNA) [IR-rpoA-A] has what Kd?
## Output 343
